Test system: HL-60 (no MLL fusion)
protocol.notes: 7-day proliferation assay (WST-8), HL-60
Assay type: cell-based
test.context: Homo sapiens, 168 h, Table 6, 7 days, read-out: IC50 in cell growth inhibition
parameter.measured: IC50

{"smiles.code": "COC(=O)N[C@H]1CCC[C@@H]1[C@](C#N)(c1cccc(F)c1)C1CCN(CC2CN(c3ccc(S(=O)(=O)C4CN(C(=O)/C=C/CN(C)C)C4)cc3)C2)CC1", "assay.value": "1600 nM"}

---

What follows is a record of IC50 for menin protein (Homo sapiens (Human), UniProt O00255).

{"smiles.code": "C=CS(=O)(=O)N[C@H]1CCC[C@@H]1[C@](C#N)(c1cccc(F)c1)C1CCN(CC2CN(c3ccc(C#N)cc3)C2)CC1", "experimental.target": "menin protein (Homo sapiens (Human), UniProt O00255)", "IC50, nM": 1070}
{"smiles.code": "C=CC(=O)Nc1cccc(S(=O)(=O)c2ccc(N3CC(CN4CCC([C@](C#N)(c5cccc(F)c5)[C@H]5CCC[C@@H]5OC(=O)NC)CC4)C3)cc2)c1", "experimental.target": "menin protein (Homo sapiens (Human), UniProt O00255)", "IC50, nM": 300}
{"smiles.code": "C=CC(=O)Nc1ccc(S(=O)(=O)c2ccc(N3CC(CN4CCC([C@@](C#N)(c5cccc(F)c5)[C@H]5CCC[C@@H]5NC(=O)OC)CC4)C3)cc2)cc1", "experimental.target": "menin protein (Homo sapiens (Human), UniProt O00255)", "IC50, nM": 4}
{"smiles.code": "C=CC(=O)N1CC(S(=O)(=O)c2ccc(N3CC(CN4CCC([C@@](C#N)(c5cccc(F)c5)[C@H]5CCC[C@@H]5OC(=O)NC)CC4)C3)cc2)C1", "experimental.target": "menin protein (Homo sapiens (Human), UniProt O00255)", "IC50, nM": 5}
{"smiles.code": "C/C=C/C(=O)Nc1cccc(S(=O)(=O)c2ccc(N3CC(CN4CCC([C@@](C#N)(c5cccc(F)c5)[C@H]5CCC[C@@H]5NC(=O)OC)CC4)C3)cc2)c1", "experimental.target": "menin protein (Homo sapiens (Human), UniProt O00255)", "IC50, nM": 4}
{"smiles.code": "COC(=O)N[C@H]1CCC[C@@H]1[C@](C#N)(c1cccc(F)c1)C1CCN(CC2CN(c3ccc(S(=O)(=O)c4cccc(NC(=O)/C=C/CN5CCOCC5)c4)cc3)C2)CC1", "experimental.target": "menin protein (Homo sapiens (Human), UniProt O00255)", "IC50, nM": 5}
{"smiles.code": "COC(=O)N[C@H]1CCC[C@@H]1[C@](C#N)(c1cccc(F)c1)C1CCN(CC2(F)CN(c3ccc(S(=O)(=O)C4CN(C(=O)/C=C/CN(C)C)C4)cc3)C2)CC1", "experimental.target": "menin protein (Homo sapiens (Human), UniProt O00255)", "IC50, nM": 9}
{"smiles.code": "C=CC(=O)N1CC(S(=O)(=O)c2ccc(N3CC(CN4CCC([C@@](Cn5ccnc5CC)(c5cccc(F)c5)[C@H]5CCC[C@@H]5NC(=O)OC)CC4)C3)cc2)C1", "experimental.target": "menin protein (Homo sapiens (Human), UniProt O00255)", "IC50, nM": 2}
{"smiles.code": "C=CC(=O)Nc1cccc(S(=O)(=O)c2ccc(N3CC(CN4CCC([C@@](C#N)(c5cccc(F)c5)[C@H]5CCC[C@@H]5OC(=O)NC)CC4)C3)cc2)c1", "experimental.target": "menin protein (Homo sapiens (Human), UniProt O00255)", "IC50, nM": 3}
{"smiles.code": "COC(=O)N[C@H]1CCC[C@@H]1[C@](Cn1ccnn1)(c1cccc(F)c1)C1CCN(CC2CN(c3ccc(S(=O)(=O)C4CN(C(=O)/C=C/CN(C)C)C4)cc3)C2)CC1", "experimental.target": "menin protein (Homo sapiens (Human), UniProt O00255)", "IC50, nM": 2}
{"smiles.code": "C=CC(=O)Nc1cccc(S(=O)(=O)c2ccc(N3CC(CN4CCC([C@@](C#N)(c5cccc(F)c5)[C@H]5CCC[C@@H]5NC(=O)OC)CC4)C3)cc2)c1", "experimental.target": "menin protein (Homo sapiens (Human), UniProt O00255)", "IC50, nM": 2}

---

Tested on: MV4-11
protocol.notes: 7-day proliferation assay (WST-8), MV4-11
Assay type: cell-based
test.context: Homo sapiens, 168 h; Table 5; MV4-11; 7 days; read-out: IC50 in cell growth inhibition
Experimental: The effect of representative Compounds of the Disclosure on cell viability was determined in a 7-day proliferation assay. Cells were maintained in the appropriate culture medium with 10% FBS at 37° C. and an atmosphere of 5% CO2. […] WST-8 reagent was added to each well at a final concentration of 10% (v/v), and then the plates were incubated at 37° C. for 1-2 hours for color development. The absorbance was measured at 450 nm using a SPECTRAmax PLUS plate reader (Molecular Devices, Sunnyvale, Calif.). […]
pIC50: −log10 of the molar value.
Rule: pIC50 of 7 or more gives yes; anything lower gives no.

{"molecule": "CCc1nccn1C[C@@](c1cccc(F)c1)(C1CCN(CC2CN(c3ccc(S(=O)(=O)C4CN(C(=O)/C=C/CN5CCCCC5)C4)cc3)C2)CC1)[C@H]1CCC[C@@H]1NC(=O)OC [Cpd. No. 73]", "group": "yes"}
{"molecule": "COC(=O)N[C@H]1CCC[C@@H]1[C@@](C#N)(c1cccc(F)c1)C1CCN(CC2CN(c3ccc(S(=O)(=O)C4CN(C(=O)/C=C/CN(C)C)C4)cc3)C2)CC1 [Cpd. No. 60]", "group": "no"}
{"molecule": "COC(=O)N[C@H]1CCC[C@@H]1[C@](Cn1ccnn1)(c1cccc(F)c1)C1CCN(CC2CN(c3ccc(S(=O)(=O)C4CN(C(=O)/C=C/CN(C)C)C4)cc3)C2)CC1 [Cpd. No. 72]", "group": "yes"}

---

Test system: K562 (no MLL fusion)
protocol.notes: 7-day proliferation assay (WST-8), K562
Assay type: cell-based
test.context: Homo sapiens, 168 h, Table 6, 7 days, read-out: IC50 in cell growth inhibition
parameter.measured: IC50

{"compound": "COC(=O)N[C@H]1CCC[C@@H]1[C@](C#N)(c1cccc(F)c1)C1CCN(CC2CN(c3ccc(S(=O)(=O)C4CN(C(=O)/C=C/CN(C)C)C4)cc3)C2)CC1 [Cpd. No. 57]", "parameter.measured": "IC50", "assay.value": "4.5 µM"}

---

System: MOLM-16 (no MLL fusion)
protocol.notes: 7-day proliferation assay (WST-8), MOLM-16
Format: cell-based
test.context: MOLM16, 168 h, Table 6, 7 days, read-out: IC50 in cell growth inhibition
Method: The effect of representative Compounds of the Disclosure on cell viability was determined in a 7-day proliferation assay. Cells were maintained in the appropriate culture medium with 10% FBS at 37° C. and an atmosphere of 5% CO2. […] WST-8 reagent was added to each well at a final concentration of 10% (v/v), and then the plates were incubated at 37° C. for 1-2 hours for color development. The absorbance was measured at 450 nm using a SPECTRAmax PLUS plate reader (Molecular Devices, Sunnyvale, Calif.). […]
pIC50: −log10 of the molar value.

{"smiles.code": "COC(=O)N[C@H]1CCC[C@@H]1[C@](C#N)(c1cccc(F)c1)C1CCN(CC2CN(c3ccc(S(=O)(=O)C4CN(C(=O)/C=C/CN(C)C)C4)cc3)C2)CC1", "pIC50": 5.19}

---

Reported IC50 values for a set of compounds
experimental.target: menin protein (Homo sapiens (Human), UniProt O00255)
Sequence (O00255 whole entry): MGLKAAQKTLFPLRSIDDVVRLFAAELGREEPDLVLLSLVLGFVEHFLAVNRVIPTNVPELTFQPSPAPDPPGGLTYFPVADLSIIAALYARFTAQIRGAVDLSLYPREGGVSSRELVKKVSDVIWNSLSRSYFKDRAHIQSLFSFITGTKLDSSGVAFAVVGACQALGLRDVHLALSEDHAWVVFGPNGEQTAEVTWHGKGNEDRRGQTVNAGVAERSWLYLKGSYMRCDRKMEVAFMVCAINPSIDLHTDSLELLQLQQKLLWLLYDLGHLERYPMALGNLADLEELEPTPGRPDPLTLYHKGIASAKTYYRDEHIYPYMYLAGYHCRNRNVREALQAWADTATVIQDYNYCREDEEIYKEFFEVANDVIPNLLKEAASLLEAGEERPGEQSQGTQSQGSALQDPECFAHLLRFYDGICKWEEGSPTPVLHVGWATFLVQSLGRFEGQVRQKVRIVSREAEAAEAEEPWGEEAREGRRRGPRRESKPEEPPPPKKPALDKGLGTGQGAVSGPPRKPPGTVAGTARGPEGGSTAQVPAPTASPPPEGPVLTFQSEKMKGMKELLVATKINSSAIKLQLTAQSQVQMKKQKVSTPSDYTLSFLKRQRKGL
protocol.notes: Fluorescence polarization (FP) competitive binding assay, menin binding affinity
test.context: menin protein 4 nM, probe 2 nM, room temperature 30 minutes

{"smiles.code": "CCc1nccn1C[C@@](c1cccc(F)c1)(C1CCN(CC2CN(c3ccc(S(=O)(=O)C4CN(C(=O)/C=C/CN(C)C)C4)cc3)C2)CC1)[C@H]1CCC[C@@H]1NC(=O)OC", "IC50": "2 nM"}
{"smiles.code": "C=CC(=O)Nc1cccc(S(=O)(=O)c2ccc(N3CC(F)(CN4CCC([C@@](Cn5ccnc5CC)(c5cccc(F)c5)[C@H]5CCC[C@@H]5NC(=O)OC)CC4)C3)cc2)c1", "IC50": "2 nM"}
{"smiles.code": "C=CC(=O)N1CC(S(=O)(=O)c2ccc(N3CC(CN4CCC([C@@](C#N)(c5cccc(F)c5)[C@H]5CCC[C@@H]5NC(=O)OC)CC4)C3)cc2)C1", "IC50": "3 nM"}

---

System: MonoMac6
protocol.notes: 7-day proliferation assay (WST-8), MonoMac6
Type: cell-based
test.context: Homo sapiens, MONO-MAC-6, 168 h; Table 6; MonoMac6 (MLL-AF9); 7 days; read-out: IC50 in cell growth inhibition
pIC50: −log10 of the molar value.
parameter.measured: pIC50

{"smiles.code": "COC(=O)N[C@H]1CCC[C@@H]1[C@](C#N)(c1cccc(F)c1)C1CCN(CC2CN(c3ccc(S(=O)(=O)C4CN(C(=O)/C=C/CN(C)C)C4)cc3)C2)CC1", "assay.value": 7.99}
